Biological target: α-glucosidase
Test: α-glucosidase inhibition assay (p-NPG, 96-well microplate)
Format: biochemical
Conditions: 37 °C, pH 6.86, substrate p-NPG
Method: The α-glucosidase inhibition assay was performed in a 96-well microplate reader method as described in a previous report. The α-glucosidase assay was performed at 37 °C with a final volume of 200 μL. […] 20 μL substrate p-nitrophenyl-α-D-glucopyranoside (p-NPG) was added to each well to start the reaction. The reaction was incubated at 37 °C for 15 min and stopped by the addition of 50 μL 0.4 M Na2CO3.
quantity: IC50 (µM)

Use these answered entries as a reference point.
>>> print(df.to_string())
                                   compound    studysystem  unitslabel  reportedmeasurement
0  C=CC(C)(C)c1[nH]c2ccccc2c1C=C1NC(=O)C(CCC(=O)O)NC1=O (stereo not shown) [Compound 2, aspergiamide B]  α-glucosidase          µM                  131
1  C=CC(C)(C)c1[nH]c2ccccc2c1/C=c1\[nH]c(=O)c2n(c1=O)CCC=2 [Compound 9, brevianamide K]  α-glucosidase          µM                  7.6
2  O=C1NC(O)c2nc3ccccc3c(=O)n2C1Cc1ccc(O)cc1 (stereo not shown) [Compound 6, aspergiamide F]  α-glucosidase          µM                  267
3  C=CC(C)(C)c1[nH]c2ccccc2c1C(O)C1NC(=O)C2CCCN2C1=O (stereo not shown) [Compound 4, aspergiamide D]  α-glucosidase          µM                  144
4  C=CC(C)(C)c1[nH]c2ccccc2c1C=C1NC(=O)C2CC(O)CN2C1=O (stereo not shown) [Compound 3, aspergiamide C]  α-glucosidase          µM                 83.9

(I) C=CC(C)(C)c1[nH]c2ccccc2c1CC1NC(=O)C2CCCN2C1=O (stereo not drawn) [Compound 13, epi-deoxybrevianamide E]
(II) C=CC(C)(C)c1[nH]c2ccccc2c1C(OC)C1NC(=O)C2CCCN2C1=O (stereo not shown) [Compound 5, aspergiamide E]
Request: Smaller IC50 value? Options are I and II Answer by stating the label of the chosen item.
Response: I
(I: 480 µM, II: 1090 µM)

###

molecular target: α-glucosidase; test: α-glucosidase inhibition assay (p-NPG, 96-well microplate); assay type: biochemical; conditions: 37 °C, pH 6.86, substrate p-NPG
quantity: IC50 (µM)

>>> print(df.to_string())
                                   molecule  reportedmeasurement
0  O=C1N[C@@H](Cc2c[nH]c3ccccc23)C(=O)N[C@H]1Cc1ccccc1 [Compound 14, cyclo-(tryptophyl-phenylalanyl)]                  353
1  C=CC(C)(C)c1[nH]c2ccccc2c1/C=C1\NC(=O)C2(OC)CCCN2C1=O (stereo not drawn) [Compound 8, brevianamide R]                  364
2  C=CC(C)(C)c1[nH]c2ccccc2c1C=C1NC(=O)C(CCCO)NC1=O (stereo not drawn) [Compound 1, aspergiamide A]                 18.2
3  C=CC(C)(C)c1[nH]c2ccccc2c1/C=C1\NC(=O)C2(O)CCCN2C1=O (stereo not drawn) [Compound 7, brevianamide Q]                  198

(A) O=C1N[C@@H](O)c2nc3ccccc3c(=O)n2[C@H]1Cc1ccccc1 [Compound 15, brevianamide M]
(B) C=CC(C)(C)c1[nH]c2ccccc2c1/C=C1\NC(=O)C2CCCN2C1=O (stereo not drawn) [Compound 10, brevianamide W]
Request: Of A and B , which one carries the higher reported IC50? Answer by stating the label of the chosen item.
Response: A

(a) O=C1NC(=O)[C@H](Cc2ccccc2)n2c1nc1ccccc1c2=O [Compound 16, brevianamide N]
(b) CC(C)=CCn1cc(CC2NC(=O)C3CCCN3C2=O)c2ccccc21 [Compound 11, N-Prenyl-cyclo-L-tryptophyl-L-proline]
Request: Of a and b , which one carries the higher reported IC50? Answer by stating the label of the chosen item.
Response: a
